Each recorded value in this set is attributed to the supplement of paper PMC10567573.

B1: VTI1B (parent)
chain: ANETLAEMEEELRYAPLSFRNPMM

# Variants of: B1
# test: protein stability index of a GFP-peptide fusion (GPS, HEK-293T) (PSI 1-6); higher = more stable;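 also: lentivirally expressed fusions sorted by FACS into six bins by GFP to DsRed ratio, PSI derived from sequencing read proportions per bin multiplied by bin number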
# protocol.conditions: c terminus: a fixed tail appended
Give measured protein stability index for each item. Keep answers brief.
Answer using only a numeral; do not append any unit.

Given the variant `Y14E` , what is its reported protein stability index?
3.66

Given the variant `E3G` , what is its reported protein stability index?
2.51

Given the variant `E3L` , what is its reported protein stability index?
1.38

Given the variant `F19H` , what is its reported protein stability index?
4.26

Given the variant `S18G` , what is its reported protein stability index?
3.19

Given the variant `Y14V` , what is its reported protein stability index?
2.09

Given the variant `P22R` , what is its reported protein stability index?
3.32

Given the variant `L12H` , what is its reported protein stability index?
3.79

Given the variant `R20N` , what is its reported protein stability index?
1.51

Given the variant `P22V` , what is its reported protein stability index?
2.81

Given the variant `A6S` , what is its reported protein stability index?
2.73

Given the variant `M8F` , what is its reported protein stability index?
2.51

Given the variant `E7N` , what is its reported protein stability index?
2.61

Given the variant `Y14L` , what is its reported protein stability index?
3.08

Given the variant `L5Q` , what is its reported protein stability index?
2.86
